Target: Protein-glutamine gamma-glutamyltransferase (Homo sapiens, UniProt P21980)
Sequence (P21980 whole entry): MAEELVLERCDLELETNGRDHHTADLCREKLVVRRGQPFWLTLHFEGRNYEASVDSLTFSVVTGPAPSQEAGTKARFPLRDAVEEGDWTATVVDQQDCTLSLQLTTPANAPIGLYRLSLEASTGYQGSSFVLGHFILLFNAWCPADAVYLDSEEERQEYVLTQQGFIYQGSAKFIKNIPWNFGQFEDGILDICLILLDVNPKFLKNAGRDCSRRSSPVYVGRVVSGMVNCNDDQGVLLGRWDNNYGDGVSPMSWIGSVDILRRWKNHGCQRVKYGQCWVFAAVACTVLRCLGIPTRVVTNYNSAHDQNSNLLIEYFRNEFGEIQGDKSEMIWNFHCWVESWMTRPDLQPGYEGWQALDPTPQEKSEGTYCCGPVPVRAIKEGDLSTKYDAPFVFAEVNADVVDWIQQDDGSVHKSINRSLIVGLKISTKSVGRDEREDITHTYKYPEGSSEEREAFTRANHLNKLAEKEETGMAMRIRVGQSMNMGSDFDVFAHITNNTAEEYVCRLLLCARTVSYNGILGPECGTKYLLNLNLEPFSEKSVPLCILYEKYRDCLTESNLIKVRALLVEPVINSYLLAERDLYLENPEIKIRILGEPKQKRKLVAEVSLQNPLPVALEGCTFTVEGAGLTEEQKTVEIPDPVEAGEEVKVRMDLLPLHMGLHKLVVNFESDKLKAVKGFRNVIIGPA
Experiment: Binding affinity to TG2 (unknown origin) assessed as dissociation constant at 30 degree C by isothermal titration calorimetry
pKd: −log10 of the molar value.
measurement-name: pKd

## Input Which pKd is reported for this molecule? "Cc1cc(N(C)CCOCCC(=O)N[C@H](C(=O)N2C[C@H](O)C[C@H]2C(=O)NCc2ccc(-c3scnc3C)cc2)C(C)(C)C)nc(Nc2ccc(NC(=O)Cc3ccccc3)cc2)n1"
## Output < 4.00

----------
Test system: SK-OV-3
Assay: Inhibition of cell migration in human SK-OV-3 cells at 10 uM incubated for 18 hrs by crystal violet staining based wound healing assay
Type: functional
Calls of active or inactive are those of the source. No cut-off for these calls is given here.
Your reply should match one of these outcome classes. True (active), False (inactive)

Known results for compounds:
>  <compound-structure>
Cc1cc(N(C)CCOCCC(=O)N[C@H](C(=O)N2C[C@H](O)C[C@H]2C(=O)NCc2ccc(-c3scnc3C)cc2)C(C)(C)C)nc(Nc2ccc(NC(=O)Cc3ccccc3)cc2)n1

>  <assigned-class>
True

$$$$
>  <compound-structure>
Cc1cc(N(C)CCOCCOCCOCCOCCOCCC(=O)N[C@H](C(=O)N2C[C@H](O)C[C@H]2C(=O)NCc2ccc(-c3scnc3C)cc2)C(C)(C)C)nc(Nc2ccc(NC(=O)Cc3ccccc3)cc2)n1

>  <assigned-class>
True

$$$$
>  <compound-structure>
Cc1cc(N(C)CCOCCOCCOCCOCCOCCC(=O)N[C@H](C(=O)N2C[C@@H](O)C[C@H]2C(=O)NCc2ccc(-c3scnc3C)cc2)C(C)(C)C)nc(Nc2ccc(NC(=O)Cc3ccccc3)cc2)n1

>  <assigned-class>
False

$$$$

Now let's try a different one.
## Input Any idea what this test logged for "Cc1cc(N(C)CCOCCC(=O)N[C@H](C(=O)N2C[C@@H](O)C[C@H]2C(=O)NCc2ccc(-c3scnc3C)cc2)C(C)(C)C)nc(Nc2ccc(NC(=O)Cc3ccccc3)cc2)n1" ?
## Output False
